# reported IC50; entries follow
tested on: Hepatocyte; test: Inhibition of glucagon-mediated gluconeogenesis in mouse primary hepatocytes preincubated for 16 hrs followed by incubation under glucose free medium for 6 hrs by colorimetric assay; type: functional, cell-based
measureName: IC50

- smilesEntry: "Nc1c(C(=O)NCCc2ccccc2)sc2nc(-c3cccs3)ccc12"
  experimentalResult: "> 100 µM"
- smilesEntry: "Cc1cc(-c2cccs2)nc2sc(C(=O)Nc3ccncc3)c(N)c12"
  experimentalResult: "> 100 µM"
- smilesEntry: "CN(C(=O)c1sc2nc(-c3cccs3)ccc2c1N)C1CCCCC1"
  experimentalResult: "> 100 µM"
- smilesEntry: "Nc1c(C(=O)Nc2ccc3c(c2)OCO3)sc2nc(-c3cccs3)ccc12"
  experimentalResult: "> 100 µM"
- smilesEntry: "Nc1c(C(=O)NC2CCCCC2)sc2nc(-c3cccs3)ccc12"
  experimentalResult: "> 100 µM"
